system under test: UniProt:Q05030
Sequence (Q05030 32-1097): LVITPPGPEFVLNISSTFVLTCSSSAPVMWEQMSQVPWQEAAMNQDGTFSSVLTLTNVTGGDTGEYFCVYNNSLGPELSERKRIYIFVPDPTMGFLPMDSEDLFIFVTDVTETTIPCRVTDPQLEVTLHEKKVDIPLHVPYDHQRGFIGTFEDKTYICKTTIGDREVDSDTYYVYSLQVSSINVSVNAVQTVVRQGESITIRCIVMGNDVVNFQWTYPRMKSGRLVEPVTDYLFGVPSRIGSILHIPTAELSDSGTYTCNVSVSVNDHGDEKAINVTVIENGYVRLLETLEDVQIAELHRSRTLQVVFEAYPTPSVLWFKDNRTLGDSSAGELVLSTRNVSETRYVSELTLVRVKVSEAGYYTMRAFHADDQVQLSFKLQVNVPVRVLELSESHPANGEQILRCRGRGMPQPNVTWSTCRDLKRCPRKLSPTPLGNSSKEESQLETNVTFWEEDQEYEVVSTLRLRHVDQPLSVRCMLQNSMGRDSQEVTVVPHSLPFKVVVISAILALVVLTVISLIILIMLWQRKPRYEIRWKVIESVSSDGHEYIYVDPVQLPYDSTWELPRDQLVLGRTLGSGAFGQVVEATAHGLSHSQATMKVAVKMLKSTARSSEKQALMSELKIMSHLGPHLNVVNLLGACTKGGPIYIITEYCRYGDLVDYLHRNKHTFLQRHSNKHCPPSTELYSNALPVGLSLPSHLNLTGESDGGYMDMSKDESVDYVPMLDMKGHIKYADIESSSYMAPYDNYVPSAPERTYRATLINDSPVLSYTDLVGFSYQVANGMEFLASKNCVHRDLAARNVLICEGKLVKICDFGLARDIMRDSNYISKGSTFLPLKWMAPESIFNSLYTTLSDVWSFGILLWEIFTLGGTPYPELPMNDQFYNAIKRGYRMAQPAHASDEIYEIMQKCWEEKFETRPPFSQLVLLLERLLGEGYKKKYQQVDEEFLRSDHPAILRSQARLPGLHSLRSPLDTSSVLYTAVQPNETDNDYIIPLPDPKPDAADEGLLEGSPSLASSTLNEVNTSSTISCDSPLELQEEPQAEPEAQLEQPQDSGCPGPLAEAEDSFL
procedure text: PDGFRβ Cellular Assay (PDGFRb P-Y751 HTRF in A10 cells stimulated with PDGF-BB)
Format: cell-based
assay setup: read-out: PDGFR Cellular IC50
Listed compounds paired with reported log10 IC50
measurement type: log10 IC50 (log10 of the value in nM)

[
  {
    "compound": "CC[C@@H]1CN(CC(=O)Nc2cnc(C)c(NC(=O)c3cnn4cc(-c5cnn(C)c5)sc34)c2)CCO1",
    "log10 IC50": 0.83
  },
  {
    "compound": "Cc1cc(C(=O)NCCN2CCc3ccccc3C2)sc1NC(=O)c1cnn2cc(-c3cnn(C)c3)sc12",
    "log10 IC50": 2.66
  },
  {
    "compound": "Cc1ncc(C(=O)NCCN2CCCC2)cc1NC(=O)c1cnn2cc(-c3cnn(CCC(O)CO)c3)sc12 (stereo not drawn)",
    "log10 IC50": 3.00
  },
  {
    "compound": "Cc1ncc(NC(=O)OCCN(C)C2CCCCC2)cc1NC(=O)c1cnn2cc(-c3cnn(C)c3)sc12",
    "log10 IC50": 1.45
  },
  {
    "compound": "Cc1ncc(NC(=O)OC[C@@H]2CCCN2C)cc1NC(=O)c1cnn2cc(-c3cn(C)nc3C)sc12",
    "log10 IC50": 0.75
  },
  {
    "compound": "Cc1ncc(C(=O)NCCN2CCC(F)(F)CC2)cc1NC(=O)c1cnn2cc(-c3cccnc3)sc12",
    "log10 IC50": 1.33
  },
  {
    "compound": "Cc1ncc(NC(=O)CN2CCC2(C)C)cc1NC(=O)c1cnn2cc(-c3cnn(C)c3)sc12",
    "log10 IC50": 1.10
  },
  {
    "compound": "COc1ncccc1-c1cn2ncc(C(=O)Nc3cc(NC(=O)CN4CC(C)C4)cnc3C)c2s1",
    "log10 IC50": 0.58
  },
  {
    "compound": "Cc1ncc(C(=O)NCC2CCCN2C)cc1NC(=O)c1cnn2cc(-c3cnn4c3OCCC4)sc12 (stereo not drawn)",
    "log10 IC50": 2.04
  },
  {
    "compound": "Cc1ncc(NC(=O)CN2CCC3(CC2)COC3)cc1NC(=O)c1cnn2cc(-c3cnn(C)c3)sc12",
    "log10 IC50": 1.93
  },
  {
    "compound": "COc1ncccc1-c1cn2ncc(C(=O)Nc3cc(NC(=O)CN4CC(C)(OC)C4)cnc3C)c2s1",
    "log10 IC50": 0.63
  },
  {
    "compound": "COc1ncccc1-c1cn2ncc(C(=O)Nc3cc(NC(=O)OCCN4CCCC4(C)C)cnc3C)c2s1",
    "log10 IC50": 0.79
  },
  {
    "compound": "COCCn1cc(-c2cn3ncc(C(=O)Nc4cc(NC(=O)C[C@@H]5CCN(C(C)C)C5)cnc4C)c3s2)cn1",
    "log10 IC50": 2.54
  },
  {
    "compound": "CC(=O)Nc1cc(-c2cn3ncc(C(=O)Nc4cc(NC(=O)CN5CC(C)(C)C5)cnc4C)c3s2)ccn1",
    "log10 IC50": 1.14
  }
]

====

pIC50: −log10 of the molar value.
Heads up, these compounds all have pIC50 values measured for His6-TEV-PDGFRβ (557-1016) (Homo sapiens (Human)).

[
  {
    "compound": "Cc1ncc(NC(=O)[C@@H]2C[C@@H](C)CN2C)cc1NC(=O)c1cnn2cc(-c3cnn(C)c3)sc12",
    "pIC50": 9.22
  },
  {
    "compound": "Cc1ncc(NC(=O)CN2CCC23CCC3)cc1NC(=O)c1cnn2cc(-c3ccnc(N4CCOCC4)c3)sc12",
    "pIC50": 9.70
  },
  {
    "compound": "Cc1ncc(NC(=O)CN2CCC(C)(C)C2)cc1NC(=O)c1cnn2cc(-c3cnn(CCO)c3)sc12",
    "pIC50": 9.22
  },
  {
    "compound": "Cc1ncc(NC(=O)CCN2CCC3(CC2)CC3)cc1NC(=O)c1cnn2cc(-c3cnn(C)c3)sc12",
    "pIC50": 9.40
  },
  {
    "compound": "Cc1ncc(C(=O)NCCN2CCCC2)cc1NC(=O)c1cnn2cc(-c3c(C)nn(C)c3C)sc12",
    "pIC50": 9.22
  },
  {
    "compound": "Cc1cc(C(=O)NCCN2CCc3ccccc3C2)sc1NC(=O)c1cnn2cc(-c3cnn(C)c3)sc12",
    "pIC50": 7.72
  },
  {
    "compound": "Cc1ncc(NC(=O)CN(C)C2CCOCC2)cc1NC(=O)c1cnn2cc(-c3cnn(C)c3)sc12",
    "pIC50": 9.30
  },
  {
    "compound": "Cc1ncc(NC(=O)CN2CCN(C)CC2)cc1NC(=O)c1cnn2cc(-c3cnn(C)c3)sc12",
    "pIC50": 7.59
  },
  {
    "compound": "COc1ncccc1-c1cn2ncc(C(=O)Nc3cc(NC(=O)CN4CCC4)cnc3C)c2s1",
    "pIC50": 9.10
  },
  {
    "compound": "Cc1ncc(NC(=O)CCN2CC3CCC2CC3)cc1NC(=O)c1cnn2cc(-c3cnn(C)c3)sc12",
    "pIC50": 9.64
  },
  {
    "compound": "Cc1ncc(C(=O)NCCN2CCCC2)cc1NC(=O)c1cnn2cc(-c3cnn(C)c3)sc12",
    "pIC50": 9.40
  },
  {
    "compound": "Cc1ncc(NC(=O)CN2CCCC23CC3)cc1NC(=O)c1cnn2cc(-c3cnn(C)c3)sc12",
    "pIC50": 9.30
  },
  {
    "compound": "Cc1ncc(NC(=O)CN2CC(C)(C)C2)cc1NC(=O)c1cnn2cc(-c3cnc4[nH]ncc4c3)sc12",
    "pIC50": 9.40
  },
  {
    "compound": "COCCn1cc(-c2cn3ncc(C(=O)Nc4cc(NC(=O)CN5CCC6(CC6)C5)cnc4C)c3s2)cn1",
    "pIC50": 9.40
  },
  {
    "compound": "COCCn1cc(-c2cn3ncc(C(=O)Nc4cc(C(=O)NCCN5CCC(F)(F)C5)cnc4C)c3s2)cn1",
    "pIC50": 9.30
  },
  {
    "compound": "COc1ncccc1-c1cn2ncc(C(=O)Nc3cc(C(=O)NCCN4CCCC4(C)C)cnc3C)c2s1",
    "pIC50": 9.70
  },
  {
    "compound": "Cc1ncc(NC(=O)CN2CCc3ncsc3C2)cc1NC(=O)c1cnn2cc(-c3cnn(C)c3)sc12",
    "pIC50": 9.00
  },
  {
    "compound": "Cc1ncc(NC(=O)CN2CC(C)(C)C2)cc1NC(=O)c1cnn2cc(-c3cnn(CC4CC4)c3)sc12",
    "pIC50": 9.40
  },
  {
    "compound": "Cc1ncc(NC(=O)CN2C[C@@H](CO)O[C@@H](C)C2)cc1NC(=O)c1cnn2cc(-c3cnn(C)c3)sc12 (relative stereo)",
    "pIC50": 9.10
  },
  {
    "compound": "Cc1ncc(NC(=O)CN2CCC[C@@H]2C)cc1NC(=O)c1cnn2cc(-c3cnn4c3CCC4)sc12",
    "pIC50": 9.70
  },
  {
    "compound": "Cc1ncc(C(=O)NCCN2CC3CCC2CC3)cc1NC(=O)c1cnn2cc(-c3cccnc3)sc12",
    "pIC50": 9.52
  },
  {
    "compound": "COCCn1cc(-c2cn3ncc(C(=O)Nc4cc(NC(=O)CCN5CCC6(CC6)C5)cnc4C)c3s2)cn1",
    "pIC50": 9.30
  },
  {
    "compound": "CC[C@H]1CN(CC(=O)Nc2cnc(C)c(NC(=O)c3cnn4cc(-c5cnn(C)c5)sc34)c2)CCO1",
    "pIC50": 9.52
  },
  {
    "compound": "Cc1cc(C(=O)NCCN2CCCC2(C)C)sc1NC(=O)c1cnn2cc(-c3cncnc3)sc12",
    "pIC50": 6.15
  },
  {
    "compound": "CC(=O)Nc1ccnc(-c2cn3ncc(C(=O)Nc4cc(C(=O)NCCN5CC6CCC5CC6)cnc4C)c3s2)c1",
    "pIC50": 9.22
  },
  {
    "compound": "Cc1cc(C(=O)NCCN2CCC(C)(C)CC2)sc1NC(=O)c1cnn2cc(-c3cnn(C)c3)sc12",
    "pIC50": 7.95
  },
  {
    "compound": "Cc1ncc(C(=O)NCCN2CC3(CCC3)C2)cc1NC(=O)c1cnn2cc(-c3cnn(C)c3)sc12",
    "pIC50": 9.22
  },
  {
    "compound": "Cc1ncc(NC(=O)CN(C)C2CCOCC2)cc1NC(=O)c1cnn2cc(-c3cnn(C(C)C#N)c3)sc12 (stereo not drawn)",
    "pIC50": 9.15
  },
  {
    "compound": "Cc1ncc(NC(=O)CC23CCCN2CCC3)cc1NC(=O)c1cnn2cc(-c3cnn(C)c3)sc12",
    "pIC50": 8.92
  },
  {
    "compound": "Cc1ncc(NC(=O)C[C@@H]2CCCN2C(C)C)cc1NC(=O)c1cnn2cc(-c3cccnc3O)sc12",
    "pIC50": 9.15
  }
]

Values were extracted from patent US20240109917A1.
